Biological target: T1, His-tagged human HtrA1 protease domain (human, UniProt Q92743 161-367)
T1 construct: His-tagged protease domain; also called huHtrA1-PD-His; huHtrA1-PD
T1 sequence (Q92743 other isoform, or with tags, fused parts or gaps limits assumed): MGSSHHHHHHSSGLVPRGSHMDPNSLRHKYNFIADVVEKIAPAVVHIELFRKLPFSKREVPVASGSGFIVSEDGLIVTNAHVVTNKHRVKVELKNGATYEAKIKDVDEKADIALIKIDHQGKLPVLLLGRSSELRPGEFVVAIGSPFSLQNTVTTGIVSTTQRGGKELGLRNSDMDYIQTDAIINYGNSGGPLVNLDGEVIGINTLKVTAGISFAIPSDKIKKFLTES
Test: BIACORE T200 SPR; Fab analyte over huHtrA1-PD-His captured by anti-His antibody
# maps each entry to its koff
Respond numerically; units are s⁻¹ and should not be typed.

{"columns": ["binder", "unit abbrev", "koff"],
 "data": [
  ["APEG.LC7.HC2 (Fab, V domains shown) VH: EVQLVQSGAEVKKPGASVKVSCKASGYTFRDSEMHWVRQAPGQGLEWIGGVDPETEGAAYNQKFKGRATITRDTSTSTAYLELSSLRSEDTAVYYCTRGYDYDYALDYWGQGTLVTVSS VL: DIQMTQSPSSLSASVGDRVTITCRASSSVNFIHWYQQKPGKAPKPLISATSNLASGVPSRFSGSGSGTDFTLTISSLQPEDFATYYCQQWYSAPWTFGQGTKVEIK", "s⁻¹", "6.6e-05"],
  ["APEG.LC3.HC2 (Fab, V domains shown) VH: EVQLVQSGAEVKKPGASVKVSCKASGYTFRDSEMHWVRQAPGQGLEWIGGVDPETEGAAYNQKFKGRATITRDTSTSTAYLELSSLRSEDTAVYYCTRGYDYDYALDYWGQGTLVTVSS VL: DIQMTQSPSSLSASVGDRVTITCRASSSVEFIHWYQQKPGKAPKPLISATSNLASGVPSRFSGSGSGTDFTLTISSLQPEDFATYYCQQWSSAPWTFGQGTKVEIK", "s⁻¹", "4.08e-05"],
  ["APEG.LC347.HC23 (Fab, V domains shown, single member of the group m82) VH: EVQLVQSGAEVKKPGASVKVSCKASGYKFRDSEMHWVRQAPGQGLEWIGGVDPETEGAAYNQKFKGRATITRDTSTSTAYLELSSLRSEDTAVYYCTRGYDYDYALDYWGQGTLVTVSS VL: DIQMTQSPSSLSASVGDRVTITCRASSSVEFIHWYQQKPGKAPKPLISATSHLASGVPSRFSGSGSGTDFTLTISSLQPEDFATYYCQQWYSAPWTFGQGTKVEIK", "s⁻¹", "6.47e-05"]
]}

Request: Which measured koff value corresponds to APEG.LC7.HC3 (Fab, V domains shown) VH: EVQLVQSGAEVKKPGASVKVSCKASGYKFTDSEMHWVRQAPGQGLEWIGGVDPETEGAAYNQKFKGRATITRDTSTSTAYLELSSLRSEDTAVYYCTRGYDYDYALDYWGQGTLVTVSS VL: DIQMTQSPSSLSASVGDRVTITCRASSSVNFIHWYQQKPGKAPKPLISATSNLASGVPSRFSGSGSGTDFTLTISSLQPEDFATYYCQQWYSAPWTFGQGTKVEIK ?
Result: 7.93e-05

Request: Which measured koff value corresponds to APEG.LC37.HC13 (Fab, V domains shown, single member of the group m82) VH: EVQLVQSGAEVKKPGASVKVSCKASGYKFKDSEMHWVRQAPGQGLEWIGGVDPETEGAAYNQKFKGRATITRDTSTSTAYLELSSLRSEDTAVYYCTRGYDYDYALDYWGQGTLVTVSS VL: DIQMTQSPSSLSASVGDRVTITCRASSSVEFIHWYQQKPGKAPKPLISATSNLASGVPSRFSGSGSGTDFTLTISSLQPEDFATYYCQQWYSAPWTFGQGTKVEIK ?
Result: 4.09e-05

Request: Which measured koff value corresponds to APEG.LC3.HC1 (Fab, V domains shown, single member of the group m82) VH: EVQLVQSGAEVKKPGASVKVSCKASGYTFKDSEMHWVRQAPGQGLEWIGGVDPETEGAAYNQKFKGRATITRDTSTSTAYLELSSLRSEDTAVYYCTRGYDYDYALDYWGQGTLVTVSS VL: DIQMTQSPSSLSASVGDRVTITCRASSSVEFIHWYQQKPGKAPKPLISATSNLASGVPSRFSGSGSGTDFTLTISSLQPEDFATYYCQQWSSAPWTFGQGTKVEIK ?
Result: 4.55e-05
